SYSTEM UNDER TEST: PDGFRb (Homo sapiens, UniProt P09619)
Construct: The kinase domain of PDGFRβ was assayed in 50 mM Hepes; purchased Invitrogen P3082
Sequence (P09619 600-962 limits assumed): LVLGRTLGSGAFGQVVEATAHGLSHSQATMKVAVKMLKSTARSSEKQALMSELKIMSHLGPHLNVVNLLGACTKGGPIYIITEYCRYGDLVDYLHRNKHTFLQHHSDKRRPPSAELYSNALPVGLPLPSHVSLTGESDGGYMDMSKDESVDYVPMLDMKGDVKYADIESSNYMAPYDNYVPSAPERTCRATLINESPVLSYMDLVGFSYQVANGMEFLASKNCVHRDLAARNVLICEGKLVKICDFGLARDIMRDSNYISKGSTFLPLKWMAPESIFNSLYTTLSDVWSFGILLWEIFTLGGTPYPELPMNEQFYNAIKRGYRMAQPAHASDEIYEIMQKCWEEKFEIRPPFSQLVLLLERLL
METHOD NOTES: Inhibition of PDGFRb kinase in an in vitro biochemical assay (alphascreen)
MEASUREMENT CONDITIONS: tested at about 1 μM; read-out: PDGFR % inhibition at 1 μM
METRIC NAME: inhibition at 1 µM (%)

Consider the following illustrative entries.
CCOc1ccccc1Nc1ncc2cc(Oc3ccnc(C(=O)NC)c3)ccc2n1 [Example 45]	12
Nc1cc(Oc2ccc3nc(Nc4ccccc4N4CCOCC4)ncc3c2)ccn1 [Example 29]	1
CNC(=O)c1cc(Oc2ccc3nc(N[C@H](C)C4CCCCC4)[nH]c3c2)ccn1 [Example 83]	100
CNC(=O)c1cc(Oc2ccc3nc(N[C@@H](CO)C4CCCCC4)ncc3c2)ccn1 [Cmpd 17]	38
CNC(=O)c1cc(Oc2ccc3nc(Nc4ccccc4OCCCO)ncc3c2)ccn1 [Example 71]	11

P = c1cc(Cc2ccc3nc(NCC4CCCCC4)sc3c2)ccn1 [Example 77]
Q = CNC(=O)c1cc(Oc2ccc3nc(N[C@H]4c5ccccc5C[C@H]4O)ncc3c2)ccn1 [Cmpd 20]
Q: Of P and Q , which carries the smaller reported inhibition at 1 µM figure? Answer by quoting the chosen item's label.
Ans: P

a = CNC(=O)c1cc(Oc2ccc3nc(N[C@@H](C)C4CCCCC4)ncc3c2)ccn1 [Cmpd 16]
b = CNC(=O)c1cc(Oc2ccc3nc(Nc4ccccc4OCCOC)ncc3c2)ccn1 [Example 69]
c = CNC(=O)c1cc(Oc2ccc3nc(NCC4CC4)ncc3c2)ccn1 [Example 53]
d = CNC(=O)c1cc(Oc2ccc3nc(Nc4ccccc4OC)ncc3c2)ccn1 [Example 44]
e = Cn1cc(-c2cc(Oc3ccc4nc(NCC5CCCCC5)ncc4c3)ccn2)cn1 [Cmpd 21]
Q: Reorder the items by inhibition at 1 µM, least to greatest. To answer, write out the labels according to the requested order.
Ans: d, b, c, a, e
(d: 3%, b: 5%, c: 9%, a: 26%, e: 91%)

P = CNC(=O)c1cc(Oc2ccc3nc(N[C@@H]4CCCC[C@H]4O)ccc3c2)ccn1 [Example 1]
Q = CNC(=O)c1cc(Oc2ccc3nc(N[C@@H]4c5ccccc5C[C@@H]4O)ncc3c2)ccn1 [Cmpd 19]
R = CNC(=O)c1cc(Oc2ccc3nc(NC(=O)NC4CCCCC4)ncc3c2)ccn1 [Example 60]
Q: Ordering criterion: inhibition at 1 µM; begin with the maximum. To answer, write out the labels according to the requested order.
Ans: P, R, Q
(P: 33%, R: 12%, Q: 3%)
